experimental.target: T1, human PD-1 expressed on cells (human, UniProt Q15116 25-288)
T1 construct: whole, on cells; cell line named under assay; also called CHO-S hPD-1; Raji PD-1
T1 sequence (Q15116 25-288): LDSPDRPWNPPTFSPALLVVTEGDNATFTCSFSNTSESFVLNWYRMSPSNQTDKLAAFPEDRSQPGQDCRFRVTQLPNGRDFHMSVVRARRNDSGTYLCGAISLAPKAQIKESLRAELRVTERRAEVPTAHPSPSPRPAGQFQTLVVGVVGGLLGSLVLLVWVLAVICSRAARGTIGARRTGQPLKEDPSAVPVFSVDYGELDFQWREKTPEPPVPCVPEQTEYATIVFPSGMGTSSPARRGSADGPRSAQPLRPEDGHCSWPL
experiment: flow cytometry, CHO-S hPD-1
Reported values of Top MFI for individual entries
Write the answer as a number in MFI, unit excluded.

Known results for binders:
z0-XVT458 (antibody, human IgG1, kappa, V domains shown, hIgG1; also called GH + uVL) VH: QVQLVQSGAEVKKPGASVKVSCKASGYTFTNFYIHWVRQAPGQGLEWMGSIYPNYGDTAYNQKFKDRVTMTTDTSTSTAYMELRSLRSDDTAVYYCARGYSYAMDYWGQGTTVTVSS VL: DIQMTQSPSSVSASVGDRVTITCSASQGISGDLNWYQQKPGKAPKLLIYHTSSLHSGVPSRFSGSGSGTDFTLTISSLQPEDFATYYCQYYSKDLLTFGGGTKLEIKR : 45200
z6-XVT458 (antibody, human IgG1, kappa, V domains shown, hIgG1; numbering as for z1; also called GH + T071V + T073K) VH: QVQLVQSGAEVKKPGASVKVSCKASGYTFTNFYIHWVRQAPGQGLEWMGSIYPNYGDTAYNQKFKDRVTMTVDKSTSTAYMELRSLRSDDTAVYYCARGYSYAMDYWGQGTTVTVSS VL: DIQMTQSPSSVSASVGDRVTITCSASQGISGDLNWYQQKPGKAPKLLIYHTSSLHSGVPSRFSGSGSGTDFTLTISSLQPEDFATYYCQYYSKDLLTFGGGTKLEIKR : 46800
z4-XVT458 (antibody, human IgG1, kappa, V domains shown, hIgG1; numbering as for z1; also called GH + V067A + T071V) VH: QVQLVQSGAEVKKPGASVKVSCKASGYTFTNFYIHWVRQAPGQGLEWMGSIYPNYGDTAYNQKFKDRATMTVDTSTSTAYMELRSLRSDDTAVYYCARGYSYAMDYWGQGTTVTVSS VL: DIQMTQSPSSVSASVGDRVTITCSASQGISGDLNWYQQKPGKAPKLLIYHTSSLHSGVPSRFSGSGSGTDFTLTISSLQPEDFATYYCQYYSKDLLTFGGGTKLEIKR : 46700
z5-XVT458 (antibody, human IgG1, kappa, V domains shown, hIgG1; numbering as for z1; also called GH + V067A + T073K) VH: QVQLVQSGAEVKKPGASVKVSCKASGYTFTNFYIHWVRQAPGQGLEWMGSIYPNYGDTAYNQKFKDRATMTTDKSTSTAYMELRSLRSDDTAVYYCARGYSYAMDYWGQGTTVTVSS VL: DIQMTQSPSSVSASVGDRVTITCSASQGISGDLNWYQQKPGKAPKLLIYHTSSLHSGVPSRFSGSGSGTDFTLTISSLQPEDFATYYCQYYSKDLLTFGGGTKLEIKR : 46200
z1-XVT458 (antibody, human IgG1, kappa, V domains shown, hIgG1; also called GH + V067A) VH: QVQLVQSGAEVKKPGASVKVSCKASGYTFTNFYIHWVRQAPGQGLEWMGSIYPNYGDTAYNQKFKDRATMTTDTSTSTAYMELRSLRSDDTAVYYCARGYSYAMDYWGQGTTVTVSS VL: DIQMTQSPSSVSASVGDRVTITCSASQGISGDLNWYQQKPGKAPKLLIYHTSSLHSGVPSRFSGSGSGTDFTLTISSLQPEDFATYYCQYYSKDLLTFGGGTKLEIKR : 45200

// Top MFI value for z7-XVT458 (antibody, human IgG1, kappa, V domains shown, hIgG1; numbering as for z1; also called GH + V067A + T071V + T073K) VH: QVQLVQSGAEVKKPGASVKVSCKASGYTFTNFYIHWVRQAPGQGLEWMGSIYPNYGDTAYNQKFKDRATMTVDKSTSTAYMELRSLRSDDTAVYYCARGYSYAMDYWGQGTTVTVSS VL: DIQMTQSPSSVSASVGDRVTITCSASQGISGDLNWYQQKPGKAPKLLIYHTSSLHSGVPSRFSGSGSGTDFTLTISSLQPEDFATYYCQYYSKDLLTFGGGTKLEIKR : 46000

// Top MFI value for z3-XVT458 (antibody, human IgG1, kappa, V domains shown, hIgG1; numbering as for z1; also called GH + T073K) VH: QVQLVQSGAEVKKPGASVKVSCKASGYTFTNFYIHWVRQAPGQGLEWMGSIYPNYGDTAYNQKFKDRVTMTTDKSTSTAYMELRSLRSDDTAVYYCARGYSYAMDYWGQGTTVTVSS VL: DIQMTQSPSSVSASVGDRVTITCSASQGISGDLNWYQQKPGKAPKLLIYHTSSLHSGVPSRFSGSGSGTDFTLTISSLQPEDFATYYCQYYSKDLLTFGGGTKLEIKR : 46200

// Top MFI value for z2-XVT458 (antibody, IgG1, V domains shown, full hIgG1; also called XVT458-z2; GH + T071V) VH: QVQLVQSGAEVKKPGASVKVSCKASGYTFTNFYIHWVRQAPGQGLEWMGSIYPNYGDTAYNQKFKDRVTMTVDTSTSTAYMELRSLRSDDTAVYYCARGYSYAMDYWGQGTTVTVSS VL: DIQMTQSPSSVSASVGDRVTITCSASQGISGDLNWYQQKPGKAPKLLIYHTSSLHSGVPSRFSGSGSGTDFTLTISSLQPEDFATYYCQYYSKDLLTFGGGTKLEIK : 45500
